System: Bacillus cereus
Assay Details: Antimicrobial activity, broth microdilution
Format: cell-based
Experimental Setup: read-out: IC50 B. cereus
Can you tell me IC50 for the items I'm about to list?

[Q] Data request, read-out IC50, for CC1(C)[C@H]2[C@H]3[C@H](CC[C@@]3(C)O)[C@@](C)(O)CC[C@H]21 [Compound 4, 1βH,5βH-aromandendrane-4α,10β-diol]
[A] > 256 µg/mL

[Q] Try this molecule next: C=C1CC[C@@H](O)[C@]2(C)CC[C@@H](C(C)C)[C@H](O)[C@@H]12 [Compound 3, 1β,6α-dihydroxy-4(15)-eudesmene]
[A] > 256 µg/mL

[Q] Try this molecule next: C=C1CC[C@@H]2[C@H]([C@H]3[C@H]1CC[C@]3(C)O)C2(C)C [Compound 1, spathulenol]
[A] > 256 µg/mL

[Q] Try this molecule next: CC(=O)O[C@H]1CC[C@]2(C)[C@H]3CC=C4[C@@H]5CC(C)(C)CC[C@]5(C(=O)O)CC[C@@]4(C)[C@]3(C)CC[C@H]2C1(C)C [Compound 5, acetyl oleanolic acid]
[A] > 256 µg/mL

[Q] Try this molecule next: CC(C)=CCC[C@H](C(=O)O)[C@@H]1CC[C@]2(C)C3=C(CC[C@@]12C)[C@@]1(C)CC[C@@H](O)C(C)(C)[C@@H]1CC3 [Compound 6]
[A] 141 µg/mL

[Q] Try this molecule next: CC1(C)[C@H]2[C@H]3[C@@H](CC[C@]3(C)O)[C@](C)(O)CC[C@H]21 [Compound 2, 1αH,5βH-aromandendrane-4β,10α-diol]
[A] > 256 µg/mL

* * *

Tgt: α-glucosidase (Saccharomyces cerevisiae, UniProt P53341)
Construct: purchased Sigma-Aldrich G0660
Sequence (P53341 whole entry): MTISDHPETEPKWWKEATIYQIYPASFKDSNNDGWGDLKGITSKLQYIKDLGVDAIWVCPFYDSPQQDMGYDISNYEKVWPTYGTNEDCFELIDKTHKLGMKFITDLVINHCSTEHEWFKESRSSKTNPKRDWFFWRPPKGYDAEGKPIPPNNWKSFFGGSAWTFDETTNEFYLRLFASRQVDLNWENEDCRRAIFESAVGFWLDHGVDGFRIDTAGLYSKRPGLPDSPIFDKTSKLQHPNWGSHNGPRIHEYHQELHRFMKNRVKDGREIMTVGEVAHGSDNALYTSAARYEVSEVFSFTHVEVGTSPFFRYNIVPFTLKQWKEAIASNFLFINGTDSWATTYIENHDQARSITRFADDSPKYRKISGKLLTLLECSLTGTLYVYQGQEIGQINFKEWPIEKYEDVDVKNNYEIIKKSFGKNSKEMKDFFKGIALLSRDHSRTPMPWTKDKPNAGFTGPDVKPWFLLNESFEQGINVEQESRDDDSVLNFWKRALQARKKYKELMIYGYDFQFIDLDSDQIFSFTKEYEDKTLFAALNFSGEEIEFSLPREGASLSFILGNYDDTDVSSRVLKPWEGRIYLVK
Assay Details: biochemical
Experimental Setup: IC50 (Table S1), Table S1, α-glucosidase
Can you tell me pIC50 for the items I'm about to list?
Friendly reminder that pIC50 comes from taking -log10 of the concentration in mol/L.

[Q] Data request, read-out pIC50, for COc1c(O)cc2oc3cc(O)c(CC=C(C)C)c(O)c3c(=O)c2c1CC=C(C)C
[A] 5.33

[Q] Try this compound next: CC(=O)O[C@H]1CC[C@]2(C)[C@H]3CC=C4[C@@H]5CC(C)(C)CC[C@]5(C(=O)O)CC[C@@]4(C)[C@]3(C)CC[C@H]2C1(C)C
[A] 4.77

* * *

Can you tell me IC50 for the items I'm about to list?
System: Salmonella enterica
Assay Details: Antimicrobial activity, broth microdilution
Type: cell-based
Experimental Setup: Salmonella enterica; Gram (−) strain; read-out: IC50 S. enterica

[Q] Data request, read-out IC50, for COc1c(O)cc2oc3cc(O)c(CC=C(C)C)c(O)c3c(=O)c2c1CC=C(C)C
[A] 16.3 µg/mL

[Q] Try this compound next: C=C1CC[C@@H](O)[C@]2(C)CC[C@@H](C(C)C)[C@H](O)[C@@H]12 [Compound 3, 1β,6α-dihydroxy-4(15)-eudesmene]
[A] > 256 µg/mL

[Q] Try this compound next: CC1(C)[C@H]2[C@H]3[C@H](CC[C@@]3(C)O)[C@@](C)(O)CC[C@H]21
[A] > 256 µg/mL

[Q] Try this compound next: CC(=O)O[C@H]1CC[C@]2(C)[C@H]3CC=C4[C@@H]5CC(C)(C)CC[C@]5(C(=O)O)CC[C@@]4(C)[C@]3(C)CC[C@H]2C1(C)C
[A] > 256 µg/mL

[Q] Try this compound next: C=C1CC[C@@H]2[C@H]([C@H]3[C@H]1CC[C@]3(C)O)C2(C)C
[A] > 256 µg/mL

[Q] Try this compound next: C[C@H]1[C@H](C)CC[C@]2(C(=O)O)CC[C@]3(C)C(=CC[C@@H]4[C@@]5(C)CC[C@H](O)C(C)(C)[C@@H]5CC[C@]43C)[C@H]12
[A] > 256 µg/mL
